A collection of compounds and their measured growth
system: RPMI-8226 leukemia; assay: NCI-60 one-dose screen, 48 h (100 = growth as untreated, 0 = no growth, -100 = all killed); details: 10 µM
The panel holds about 83,000 compounds, 20% with a hit somewhere; the sample as a whole holds those more often.
Give the number; % is assumed, so skip it.

Some solved entries appear below for comparison.
compound	target.or.test.system	growth / %
CCOC(=O)N/N=C\C(C)=N\NC(=O)OCC	RPMI-8226 leukemia	98.8
COc1cc(Cl)cc(-c2nn(-c3cccc(NC(=O)Nc4ccc(Cl)c(C(F)(F)F)c4)c3)cc2-c2ccncc2)c1	RPMI-8226 leukemia	-29.1
COc1cc(-c2cc(/C=C/C(=O)c3ccc(N)cc3)[nH]n2)cc(OC)c1OC	RPMI-8226 leukemia	-26.5
COc1cc(-c2cc(/C=C3\C(=O)Nc4ccc(Cl)cc43)[nH]n2)cc(OC)c1OC	RPMI-8226 leukemia	-18.3
COc1cc(/C=C/C(=O)c2ccc(Cl)cc2)ccc1OS(=O)(=O)c1ccc(C)cc1	RPMI-8226 leukemia	-16.7
COc1cc2cc3c(nc2cc1OC)CCN3Cc1ccc(NC(=O)Nc2cc(C(F)(F)F)cc(C(F)(F)F)c2)cc1	RPMI-8226 leukemia	54.2
CCN(CCCCCCN1CC(=O)N(CCCCCCN(CC)Cc2ccccc2OC)CC1=O)Cc1ccccc1OC	RPMI-8226 leukemia	30.3
Nc1nccc(Nc2ccccc2)n1	RPMI-8226 leukemia	96.6

Qu. Query: growth; subject: "CCN(CC)CCSCCCNc1c2ccc(Cl)cc2nc2ccc(OC)cc12"
Ans. -22.9

Qu. Query: growth; subject: "COc1ccc(-c2nc(-c3nc4ccc(Cl)cc4[nH]3)c3ccccn23)cc1"
Ans. 49.3

Qu. Query: growth; subject: CCN(CC)CCC(CNc1c(C)cnc2cc(Cl)ccc12)c1ccc(Cl)c(Cl)c1 (centres undefined)
Ans. 24.5

Qu. Query: growth; subject: "Cc1ccc(-c2n[nH]c(=O)c3noc(-c4ccc(C)cc4)c23)cc1"
Ans. 11.8

Qu. Query: growth; subject: "COc1ccc(-c2nn(-c3cccc(NC(=O)c4ccc(N5CCOCC5)c(C(F)(F)F)c4)c3)cc2-c2ccncc2)cc1Cl"
Ans. 14.6

Qu. Query: growth; subject: "Cc1ccc(S(=O)(=O)Oc2ccc3c4c(c(=O)oc3c2)CCCCC4)cc1"
Ans. 24

====

system: 786-0 renal; test: NCI-60 one-dose screen, 48 h (100 = growth as untreated, 0 = no growth, -100 = all killed); details: 10 µM
Compounds without any hit were thinned out: in the full panel of roughly 83,000, 20% have a hit. Activity calls are given as the source filed them. How the source made its calls: active means growth percent below 10; inactive means the rest.
measured.endpoint: growth

compound	measured.endpoint	val
CCN(CC)CCOc1nc2ccccc2c2c1-c1ccc(OC)cc1C2=O	growth	0.417% (active)
CC(=O)C1CCC2C3CC(F)C4=CC(=O)CCC4(C)C3C(O)CC12C (stereo not drawn)	growth	96.3% (inactive)

Now for the compound whose growth we want.
Qu. Query: growth; subject: "COc1ccc(-c2nn(-c3cccc(NC(=O)Nc4cc(C(F)(F)F)cc(C(F)(F)F)c4)c3)cc2-c2ccncc2)cc1Cl"
Ans. -12.8% (active)

====

test system: LOX IMVI melanoma; experiment: NCI-60 one-dose screen, 48 h; conditions: 10 µM
Compounds without any hit were thinned out: in the full panel of roughly 83,000, 20% have a hit. The source made the active and inactive calls. How the source made its calls: active means growth percent below 10; inactive means the rest.
// classify into t for active, f for inactive

molecule	answer.label
COc1ccc2c(c1)C(=O)c1c-2c(OCCN(C)C)nc2cc(OC)c(OC)cc12	t
O=S(=O)(NCCCNc1nccc(-c2c(-c3ccc(F)cc3)nc3sccn23)n1)c1ccc(F)cc1	f
CSc1cc(SC)ncn1	f

API: the following record is the query input.
Qu. Look up the recorded call for "Cc1ccc(CC#N)cc1C" in this test.
Ans. f
